System: Swiss-Webster male mice
METHOD DESCRIPTION: Mouse Activity and Screen Test Procedure (MAST): screen test (ST)
Format: in vivo
SETTINGS: 0.3 mg/kg intraperitoneally, one hour postinjection
METRIC NAME: Screen test failure (%)

Known Screen test failure results, listed for orientation:
COc1cccc2c1CCC[C@@H]2Nc1ncnc2c1ncn2[C@@H]1O[C@H](CO)[C@@H](O)[C@H]1O | 11
OC[C@H]1O[C@@H](n2cnc3c(NC4CCCc5ccccc54)ncnc32)[C@H](O)[C@@H]1O (stereo partly drawn) [Example 2, (R)-N^6-[1-Tetralinyl]-adenosine] | 0
CC1CCc2ccccc2C1Nc1ncnc2c1ncn2[C@@H]1O[C@H](CO)[C@@H](O)[C@H]1O (stereo partly shown) [Example 4, N^6-[1-(2-Methyl)-tetralinyl]-adenosine] | 11
OC[C@H]1O[C@@H](n2cnc3c(NCC4=CCCc5ccccc54)ncnc32)[C@H](O)[C@@H]1O | 0
OC[C@H]1O[C@H](n2cnc3c(NC4CCCc5ccccc54)ncnc32)[C@H](O)[C@@H]1O (stereo partly drawn) [Example 3, (S)-N^6-[1-Tetralinyl]-adenosine] | 0

(P) COc1ccc2c(c1)C(Nc1ncnc3c1ncn3[C@@H]1O[C@H](CO)[C@@H](O)[C@H]1O)CCC2 (single isomer, unassigned)
(Q) COc1cccc2c1CCCC2Nc1ncnc2c1ncn2[C@@H]1O[C@H](CO)[C@@H](O)[C@H]1O (stereo partly shown)
Ask: Dear colleague, could you let me know whether P or Q has the lower recorded Screen test failure? Thanks. Identify your pick by its label.
Result: Q
(Q: 0%, P: 11%)

###

Form: system (adenosine A2 receptor (Rattus norvegicus)), quantity (IC50), values below.
METRIC NAME: IC50 (µM)

OC[C@H]1O[C@@H](n2cnc3c(NC4CCCc5ccccc54)ncnc32)[C@H](O)[C@@H]1O (stereo partly drawn) [Example 2, (R)-N^6-[1-Tetralinyl]-adenosine] | 0.243

(I) O=C(OC[C@H]1O[C@@H](n2cnc3c(NC4CCCc5ccccc54)ncnc32)[C@H](O)[C@@H]1O)c1ccccc1 (some centres unmarked) [Example 13, N^6-(1-tetralinyl)-5'-benzoyladenosine]
(II) OC[C@H]1O[C@@H](n2cnc3c(NCC4=CCCc5ccccc54)ncnc32)[C@H](O)[C@@H]1O [Example 24]
Ask: Lab note: record which item had the higher IC50, I or II . Identify your pick by its label.
Result: I
(I: 7.92 µM, II: 0.0765 µM)

(1) OC[C@H]1O[C@@H](n2cnc3c(NC4CCCc5c(O)cccc54)ncnc32)[C@H](O)[C@@H]1O (some centres unmarked) [Example 16, N^6-[1-(5-hydroxy)-tetralinyl]-adenosine]
(2) OC[C@H]1O[C@H](n2cnc3c(NC4CCCc5ccccc54)ncnc32)[C@H](O)[C@@H]1O (stereo partly drawn) [Example 3, (S)-N^6-[1-Tetralinyl]-adenosine]
Ask: Dear colleague, could you let me know whether 1 or 2 has the lower recorded IC50? Thanks. Identify your pick by its label.
Result: 1
(1: 0.26 µM, 2: 2.03 µM)

###

Test system: Swiss-Webster male mice
METHOD DESCRIPTION: Mouse Activity and Screen Test Procedure (MAST): locomotor activity in actophotometer
Type: in vivo
SETTINGS: 1 mg/kg intraperitoneally, one hour prior to testing
METRIC NAME: Inhibition of mouse locomotor activity (%)
Express your answer in %, writing the number without its unit.

Known Inhibition of mouse locomotor activity results, listed for orientation:
CCOC(=O)OC[C@H]1O[C@@H](n2cnc3c(NC4CCCc5ccccc54)ncnc32)[C@H](OC(=O)OCC)[C@@H]1OC(=O)OCC (stereo partly drawn) [Example 19] | 42
OC[C@H]1O[C@@H](n2cnc3c(NCC4CCc5ccccc54)ncnc32)[C@H](O)[C@@H]1O (stereo partly drawn) [Example 21] | 23
COc1ccc2c(c1)C(Nc1ncnc3c1ncn3[C@@H]1O[C@H](CO)[C@@H](O)[C@H]1O)CCC2 (single isomer, unassigned) [Example 8] | 83
CC(=O)Oc1ccccc1C(=O)OC[C@H]1O[C@@H](n2cnc3c(NC4CCCc5ccccc54)ncnc32)[C@H](O)[C@@H]1O (stereo partly drawn) [Example 14] | 54
OC[C@H]1O[C@@H](n2cnc3c(NCC4=CCCc5ccccc54)ncnc32)[C@H](O)[C@@H]1O [Example 24] | 34

Ask: Report Inhibition of mouse locomotor activity for CC(=O)OC[C@H]1O[C@@H](n2cnc3c(NC4CCCc5ccccc54)ncnc32)[C@H](O)[C@@H]1O (stereo partly drawn) [Example 15, N^6-(1-tetralinyl)-5'-acetyl-adenosine] please.
Result: 87

###

SYSTEM UNDER TEST: adenosine A2 receptor (Rattus norvegicus)
Sequence (P30543 whole entry): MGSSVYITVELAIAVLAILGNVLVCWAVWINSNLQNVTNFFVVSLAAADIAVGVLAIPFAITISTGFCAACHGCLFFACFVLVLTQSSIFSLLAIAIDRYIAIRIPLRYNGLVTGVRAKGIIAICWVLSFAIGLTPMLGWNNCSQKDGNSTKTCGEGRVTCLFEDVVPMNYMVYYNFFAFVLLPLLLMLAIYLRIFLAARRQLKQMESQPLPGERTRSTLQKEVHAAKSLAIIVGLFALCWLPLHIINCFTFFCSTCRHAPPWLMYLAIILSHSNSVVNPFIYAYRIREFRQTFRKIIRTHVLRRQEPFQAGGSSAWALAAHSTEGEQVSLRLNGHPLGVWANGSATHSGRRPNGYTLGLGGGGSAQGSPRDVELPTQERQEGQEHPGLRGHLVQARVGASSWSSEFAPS
METRIC NAME: IC50 (µM)

O[C@@H]1[C@H](O)[C@@H](COCc2ccccc2)O[C@H]1n1cnc2c(NC3CCCc4ccccc43)ncnc21 (stereo partly drawn) | 46.7

(a) CC(=O)OC[C@H]1O[C@@H](n2cnc3c(NC4CCCc5ccccc54)ncnc32)[C@H](O)[C@@H]1O (stereo partly drawn)
(b) OC[C@H]1O[C@@H](n2cnc3c(NCC4=CCc5ccccc54)ncnc32)[C@H](O)[C@@H]1O [Example 22, N^6-[1H-inden-3-yl]methyladenosine]
Ask: Lab note: record which item had the higher IC50, a or b . Identify your pick by its label.
Result: a

###

Test system: Swiss-Webster male mice
METHOD DESCRIPTION: Mouse Activity and Screen Test Procedure (MAST): screen test (ST)
Format: in vivo
SETTINGS: 1 mg/kg intraperitoneally, one hour postinjection
METRIC NAME: Screen test failure (%)

(I) OC[C@H]1O[C@@H](n2cnc3c(NC4CCCc5ccccc54)ncnc32)[C@H](O)[C@@H]1O (stereo partly drawn) [Example 2, (R)-N^6-[1-Tetralinyl]-adenosine]
(II) OC[C@H]1O[C@@H](n2cnc3c(NCC4=CCc5ccccc54)ncnc32)[C@H](O)[C@@H]1O [Example 22, N^6-[1H-inden-3-yl]methyladenosine]
(III) OC[C@H]1O[C@H](n2cnc3c(NC4CCCc5ccccc54)ncnc32)[C@H](O)[C@@H]1O (stereo partly drawn) [Example 3, (S)-N^6-[1-Tetralinyl]-adenosine]
Ask: Sort the listed entries by Screen test failure, smallest first. Output spec: a listing of the labels in the requested order.
Result: II, I, III
(II: 0%, I: 11%, III: 22%)

(I) COc1ccc2c(c1)CCCC2Nc1ncnc2c1ncn2[C@@H]1O[C@H](CO)[C@@H](O)[C@H]1O (stereo partly drawn) [Example 6, N^6-[1-(6-Methoxy)-tetralinyl]-adenosine]
(II) COc1ccc2c(c1)C(Nc1ncnc3c1ncn3[C@@H]1O[C@H](CO)[C@@H](O)[C@H]1O)CCC2 (single isomer, unassigned) [Example 8]
Ask: Lab note: record which item had the higher Screen test failure, I or II . Identify your pick by its label.
Result: II
(II: 11%, I: 0%)

(P) OC[C@H]1O[C@@H](n2cnc3c(NCC4=CCCc5ccccc54)ncnc32)[C@H](O)[C@@H]1O [Example 24]
(Q) Cc1cc(C)c2c(c1)C(Nc1ncnc3c1ncn3[C@@H]1O[C@H](CO)[C@@H](O)[C@H]1O)CCC2 (stereo partly drawn) [Example 18]
(R) CC(=O)OC[C@H]1O[C@@H](n2cnc3c(NC4CCCc5ccccc54)ncnc32)[C@H](O)[C@@H]1O (stereo partly drawn) [Example 15, N^6-(1-tetralinyl)-5'-acetyl-adenosine]
Ask: Hi! Can you put these in order of Screen test failure, lowest number first? Output spec: a listing of the labels in the requested order.
Result: P, Q, R
(P: 0%, Q: 11%, R: 22%)

(A) COc1ccc2c(c1)C(Nc1ncnc3c1ncn3[C@@H]1O[C@H](CO)[C@@H](O)[C@H]1O)CCC2 (single isomer, unassigned) [Example 5, N6-[1-(7-Methoxy)-tetralinyl]-adenosine]
(B) CCOC(=O)OC[C@H]1O[C@@H](n2cnc3c(NC4CCCc5ccccc54)ncnc32)[C@H](OC(=O)OCC)[C@@H]1OC(=O)OCC (stereo partly drawn) [Example 19]
Ask: Lab note: record which item had the higher Screen test failure, A or B . Identify your pick by its label.
Result: B
(B: 11%, A: 0%)

###

Tested on: Swiss-Webster male mice
METHOD DESCRIPTION: Mouse Activity and Screen Test Procedure (MAST): screen test (ST)
Type: in vivo
SETTINGS: 30 mg/kg intraperitoneally, one hour postinjection
METRIC NAME: Screen test failure (%)

CC1CCc2ccccc2C1Nc1ncnc2c1ncn2[C@@H]1O[C@H](CO)[C@@H](O)[C@H]1O (stereo partly drawn) [Example 4, N^6-[1-(2-Methyl)-tetralinyl]-adenosine] | 88

(1) OC[C@H]1O[C@H](n2cnc3c(NC4CCCc5ccccc54)ncnc32)[C@H](O)[C@@H]1O (stereo partly drawn) [Example 3, (S)-N^6-[1-Tetralinyl]-adenosine]
(2) OC[C@H]1O[C@@H](n2cnc3c(NCC4=CCc5ccccc54)ncnc32)[C@H](O)[C@@H]1O [Example 22, N^6-[1H-inden-3-yl]methyladenosine]
Ask: Lab note: record which item had the higher Screen test failure, 1 or 2 . Identify your pick by its label.
Result: 2

Data origin, for the record: patent EP0179667B1
